- Assay procedure: Cytotoxicity against dog MDCK cells measured after 48 hrs by MTT assay
- Format: cell-based, Canis lupus familiaris
Assay metric: CC50 at 48 h

Solved cases (2 shown):
1. C[C@H]1[C@H](C)CC[C@]2(C(=O)Nc3ccc(F)cc3)CC[C@]3(C)C(=CC[C@@H]4[C@@]5(C)CC[C@H](O[C@@H]6O[C@H](CO)[C@@H](O[C@@H]7O[C@@H](C)[C@H](O)[C@@H](O)[C@H]7O)[C@H](O)[C@H]6O[C@@H]6O[C@@H](C)[C@H](O)[C@@H](O)[C@H]6O)C(C)(C)[C@@H]5CC[C@]43C)[C@H]12 ... > 1000 µM
2. C[C@H]1[C@H](C)CC[C@]2(C(=O)N3CCCC3)CC[C@]3(C)C(=CC[C@@H]4[C@@]5(C)CC[C@H](O[C@@H]6O[C@H](CO)[C@@H](O[C@@H]7O[C@@H](C)[C@H](O)[C@@H](O)[C@H]7O)[C@H](O)[C@H]6O[C@@H]6O[C@@H](C)[C@H](O)[C@@H](O)[C@H]6O)C(C)(C)[C@@H]5CC[C@]43C)[C@H]12 ... 42.4 µM

Query :: I'd like to know its CC50 at 48 h. The molecule in question is `COc1cccc(NC(=O)[C@]23CC[C@@H](C)[C@H](C)[C@H]2C2=CC[C@@H]4[C@@]5(C)CC[C@H](O[C@@H]6O[C@H](CO)[C@@H](O[C@@H]7O[C@@H](C)[C@H](O)[C@@H](O)[C@H]7O)[C@H](O)[C@H]6O[C@@H]6O[C@@H](C)[C@H](O)[C@@H](O)[C@H]6O)C(C)(C)[C@@H]5CC[C@@]4(C)[C@]2(C)CC3)c1`
Result :: > 1000 µM

----------
For each of the compounds below, state its CC50 at 48 h.
- Assay procedure: Cytotoxicity against dog MDCK cells measured after 48 hrs by MTT assay
- Format: cell-based, Canis lupus familiaris

Solved cases (5 shown):
1) C[C@H]1[C@H](C)CC[C@]2(C(=O)O)CC[C@]3(C)C(=CC[C@@H]4[C@@]5(C)CC[C@H](O[C@@H]6O[C@H](CO)[C@@H](O[C@@H]7O[C@@H](C)[C@H](O)[C@@H](O)[C@H]7O)[C@H](O)[C@H]6O[C@@H]6O[C@@H](C)[C@H](O)[C@@H](O)[C@H]6O)C(C)(C)[C@@H]5CC[C@]43C)[C@H]12 ... 25.3 µM
2) C[C@H]1[C@H](C)CC[C@]2(C(=O)Nc3ccccc3)CC[C@]3(C)C(=CC[C@@H]4[C@@]5(C)CC[C@H](O[C@@H]6O[C@H](CO)[C@@H](O[C@@H]7O[C@@H](C)[C@H](O)[C@@H](O)[C@H]7O)[C@H](O)[C@H]6O[C@@H]6O[C@@H](C)[C@H](O)[C@@H](O)[C@H]6O)C(C)(C)[C@@H]5CC[C@]43C)[C@H]12 ... > 1000 µM
3) COc1ccc(NC(=O)[C@]23CC[C@@H](C)[C@H](C)[C@H]2C2=CC[C@@H]4[C@@]5(C)CC[C@H](O[C@@H]6O[C@H](CO)[C@@H](O[C@@H]7O[C@@H](C)[C@H](O)[C@@H](O)[C@H]7O)[C@H](O)[C@H]6O[C@@H]6O[C@@H](C)[C@H](O)[C@@H](O)[C@H]6O)C(C)(C)[C@@H]5CC[C@@]4(C)[C@]2(C)CC3)cc1 ... > 1000 µM
4) C[C@H]1[C@H](C)CC[C@]2(C(=O)Nc3ccc(OC(F)(F)F)cc3)CC[C@]3(C)C(=CC[C@@H]4[C@@]5(C)CC[C@H](O[C@@H]6O[C@H](CO)[C@@H](O[C@@H]7O[C@@H](C)[C@H](O)[C@@H](O)[C@H]7O)[C@H](O)[C@H]6O[C@@H]6O[C@@H](C)[C@H](O)[C@@H](O)[C@H]6O)C(C)(C)[C@@H]5CC[C@]43C)[C@H]12 ... 451 µM
5) CNC(=O)[C@]12CC[C@@H](C)[C@H](C)[C@H]1C1=CC[C@@H]3[C@@]4(C)CC[C@H](O[C@@H]5O[C@H](CO)[C@@H](O[C@@H]6O[C@@H](C)[C@H](O)[C@@H](O)[C@H]6O)[C@H](O)[C@H]5O[C@@H]5O[C@@H](C)[C@H](O)[C@@H](O)[C@H]5O)C(C)(C)[C@@H]4CC[C@@]3(C)[C@]1(C)CC2 ... 683 µM

List reported CC50 at 48 h for each of these compounds:
1. COc1ccccc1NC(=O)[C@]12CC[C@@H](C)[C@H](C)[C@H]1C1=CC[C@@H]3[C@@]4(C)CC[C@H](O[C@@H]5O[C@H](CO)[C@@H](O[C@@H]6O[C@@H](C)[C@H](O)[C@@H](O)[C@H]6O)[C@H](O)[C@H]5O[C@@H]5O[C@@H](C)[C@H](O)[C@@H](O)[C@H]5O)C(C)(C)[C@@H]4CC[C@@]3(C)[C@]1(C)CC2
2. C[C@H]1[C@H](C)CC[C@]2(C(=O)NCc3ccccc3)CC[C@]3(C)C(=CC[C@@H]4[C@@]5(C)CC[C@H](O[C@@H]6O[C@H](CO)[C@@H](O[C@@H]7O[C@@H](C)[C@H](O)[C@@H](O)[C@H]7O)[C@H](O)[C@H]6O[C@@H]6O[C@@H](C)[C@H](O)[C@@H](O)[C@H]6O)C(C)(C)[C@@H]5CC[C@]43C)[C@H]12
3. C[C@H]1[C@H](C)CC[C@]2(C(=O)Nc3ccc(Cl)cc3)CC[C@]3(C)C(=CC[C@@H]4[C@@]5(C)CC[C@H](O[C@@H]6O[C@H](CO)[C@@H](O[C@@H]7O[C@@H](C)[C@H](O)[C@@H](O)[C@H]7O)[C@H](O)[C@H]6O[C@@H]6O[C@@H](C)[C@H](O)[C@@H](O)[C@H]6O)C(C)(C)[C@@H]5CC[C@]43C)[C@H]12
4. COc1ccc(CNC(=O)[C@]23CC[C@@H](C)[C@H](C)[C@H]2C2=CC[C@@H]4[C@@]5(C)CC[C@H](O[C@@H]6O[C@H](CO)[C@@H](O[C@@H]7O[C@@H](C)[C@H](O)[C@@H](O)[C@H]7O)[C@H](O)[C@H]6O[C@@H]6O[C@@H](C)[C@H](O)[C@@H](O)[C@H]6O)C(C)(C)[C@@H]5CC[C@@]4(C)[C@]2(C)CC3)cc1
5. C[C@H]1[C@H](C)CC[C@]2(C(=O)Nc3ccccc3Cl)CC[C@]3(C)C(=CC[C@@H]4[C@@]5(C)CC[C@H](O[C@@H]6O[C@H](CO)[C@@H](O[C@@H]7O[C@@H](C)[C@H](O)[C@@H](O)[C@H]7O)[C@H](O)[C@H]6O[C@@H]6O[C@@H](C)[C@H](O)[C@@H](O)[C@H]6O)C(C)(C)[C@@H]5CC[C@]43C)[C@H]12
6. C[C@H]1[C@H](C)CC[C@]2(C(=O)Nc3cccc(Cl)c3)CC[C@]3(C)C(=CC[C@@H]4[C@@]5(C)CC[C@H](O[C@@H]6O[C@H](CO)[C@@H](O[C@@H]7O[C@@H](C)[C@H](O)[C@@H](O)[C@H]7O)[C@H](O)[C@H]6O[C@@H]6O[C@@H](C)[C@H](O)[C@@H](O)[C@H]6O)C(C)(C)[C@@H]5CC[C@]43C)[C@H]12

Result ::
> 1000 µM
123 µM
> 1000 µM
100 µM
306 µM
> 1000 µM
